The values you see were collected from PubChem BioAssay.

# target: Serine protease HTRA1 (Homo sapiens) (UniProt Q92743)
# test.name: HTRA1 protease inhibitors, retest, confirmation, biochemical, fluorescence polarization (AID 540248);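 also: 0% = HTRA1 with DMSO and 100% = wells lacking HTRA1; inhibitors block probe binding so polarization drops and inhibition rises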
# test.settings: recombinant HTRA1, FP-rhodamine activity-based probe, at 5.96 µM, hits give high values
This is one part of the list.
Decide using inhibition: a value greater than or equal to 60% is Satisfied, a smaller one is Not satisfied.

-- ask Record "NNc1cccc(C=Cc2ccccc2)cc1=O" ; criterion: inhibition no lower than 60%. Met?
-- reply Not satisfied

-- ask Record CC(C)C1N=C2c3ccccc3N=C(SCC(=O)c3ccc(O)c(O)c3)N2C1=O (centres undefined) ; criterion: inhibition no lower than 60%. Met?
-- reply Not satisfied

-- ask Record "Cc1cccc(N2CCN(c3ccc(NC(=O)/C=C\C(=O)O)cc3)CC2)c1" ; criterion: inhibition no lower than 60%. Met?
-- reply Not satisfied

-- ask Record "CNC(=S)NNC(=O)c1oc2nc(-c3ccccc3)cc(-c3ccco3)c2c1N" ; criterion: inhibition no lower than 60%. Met?
-- reply Not satisfied

---

# target: Nuclear receptor subfamily 5 group A member 2 (Homo sapiens)
# test.name: LRH-1 (NR5A2) inverse agonists, retest, confirmation, cell-based, luminescence (AID 651613);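 also: HEK293T cells co-transfected with LRH-1 and StAR promoter luciferase reporter; 0% = vehicle wells and 100% = parental cells lacking receptor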
# test.settings: cell-based LRH-1 luciferase reporter, inverse agonism; at 3.6 µM; hits give high values
Decide using inhibition: a value greater than or equal to 50% is YES, a smaller one is NO.

[
  {
    "compound": "Cc1ccc(SCC(=O)Nc2ccc(N3CCOCC3)cc2)cc1C",
    "class": "YES"
  },
  {
    "compound": "CCC(=O)N1CCN(c2ccc(NC(=O)c3ccc([N+](=O)[O-])o3)cc2Cl)CC1",
    "class": "YES"
  },
  {
    "compound": "Cc1cc2sc3ccc(C#CC4(O)CCCCC4)cc3c(=O)c2cc1C",
    "class": "YES"
  },
  {
    "compound": "CCc1cc(-c2nnn(CCC3COCCO3)c2CC)ccc1-c1cn(Cc2ccc3ccccc3c2)nn1 (stereo not given)",
    "class": "NO"
  },
  {
    "compound": "CCCc1nc2c(=O)n(C)c(=O)nc-2n(C)n1",
    "class": "YES"
  },
  {
    "compound": "O=C(c1ccc(Oc2ccc(Cl)cc2)c([N+](=O)[O-])c1)N1CCCC1",
    "class": "NO"
  },
  {
    "compound": "O=C(CN1C(=O)NC2(CCOc3ccccc32)C1=O)Nc1cccc([N+](=O)[O-])c1 (stereo not given)",
    "class": "YES"
  },
  {
    "compound": "CCn1nnc(NC(=O)c2ccc([N+](=O)[O-])o2)n1",
    "class": "YES"
  }
]

-- ask Record "CN1CCN(/N=C/c2nc(-c3cccc([N+](=O)[O-])c3)n3ccccc23)CC1" ; criterion: inhibition no lower than 50%. Met?
-- reply NO

-- ask Record "CC(C)(C)Nc1nc(-c2ccccn2)nc2ccccc12" ; criterion: inhibition no lower than 50%. Met?
-- reply YES

---

# Tested on: transactivating tegument protein VP16 (Human herpesvirus 1), Gal4-VP16 luciferase reporter
# test.name: VP16 transactivation inhibitors, counter-screen for SRC3 inhibitor project, cell-based, luminescence, high throughput (AID 588794)
# test.settings: mammalian cells, VP16-driven luciferase reporter luminescence; at 3.6 µM; hits give high values
// inhibition lookup, one value per entry
Entry rule: numbers only, all in %.

Examples with their reported inhibition follow.
[
  {
    "compound": "COc1cc2[nH]c3c(Cl)ncnc3c2cc1OC",
    "readout.unit": "%",
    "recorded.measurement": 16.2
  },
  {
    "compound": "C[n+]1c2n(c3ccccc31)N=C(c1cc(C(C)(C)C)c(O)c(C(C)(C)C)c1)CS2",
    "readout.unit": "%",
    "recorded.measurement": 84.6
  },
  {
    "compound": "Cc1nc2c(-c3ccc(Cl)cc3)c(C)[nH]n2c(=O)c1Cc1ccccc1",
    "readout.unit": "%",
    "recorded.measurement": 29.3
  }
]

-- ask Name the reported inhibition value associated with the compound "COc1ccc(-c2noc(CCC(=O)NCCCN3CCC(Cc4ccccc4)CC3)n2)cc1"
-- reply 10.7

-- ask Name the reported inhibition value associated with the compound "CC1(C)CC(N2CCN(c3ccccc3)CC2)=CC(=[N+]2CCCC2)C1"
-- reply 37.6

-- ask Name the reported inhibition value associated with the compound CCC(=O)NC(c1cccs1)c1ccc2cccnc2c1O (stereo unspecified)
-- reply 25.9

---

# test.name: StAR promoter reporter inhibitors, counter-screen for LRH-1 inverse agonist project, cell-based, luminescence, high throughput (AID 651611)
# test.settings: StAR promoter luciferase reporter counterscreen, at 3.6 µM, hits give high values
// inhibition lookup, one value per entry
Entry rule: numbers only, all in %.

Examples with their reported inhibition follow.
[
  {
    "compound": "CC(=O)Nc1ccc(NC(=O)CSc2nnc(NC(=O)C3CC3)s2)cc1",
    "inhibition (%)": 1.23
  },
  {
    "compound": "O=C(C(Cl)c1ccccc1)N1CCOCC1 (configuration not stated)",
    "inhibition (%)": 5.9
  },
  {
    "compound": "COc1ccc(-c2cn(-c3ccc(OC)cc3)c3[n+]2-c2ccccc2CC3)cc1",
    "inhibition (%)": 40.8
  },
  {
    "compound": "CN(Cc1cnc2nc(N)nc(N)c2n1)c1ccc(C(=O)NC(CCC(=O)O)C(=O)O)cc1C(F)(F)F (configuration not stated)",
    "inhibition (%)": 79.6
  },
  {
    "compound": "NC(=S)NN=Cc1nccc2c(C(F)(F)C(F)(F)C(F)(F)F)cccc12",
    "inhibition (%)": 92.3
  }
]

-- ask Name the reported inhibition value associated with the compound "COc1cc(N)c2ncccc2c1Cl"
-- reply -0.07

-- ask Name the reported inhibition value associated with the compound "CCc1c(O)nc(SCC(=O)Nc2ccccc2C)n(-c2ccc(C)cc2)c1=O"
-- reply 14.4

-- ask Name the reported inhibition value associated with the compound "Cc1cccc(C(=O)N[C@H](C(=O)Nc2ncc(C)s2)C(C)C)c1"
-- reply 35.8

-- ask Name the reported inhibition value associated with the compound "COc1ccc(C(=O)Nc2nnc(Cc3cccs3)s2)cc1OC"
-- reply 51.5

-- ask Name the reported inhibition value associated with the compound CC1CCCC(C)N1C(=O)COC(=O)Cc1ccc(Cl)cc1 (configuration not stated)
-- reply -5.45

-- ask Name the reported inhibition value associated with the compound COc1cccc(C2c3cc4c(cc3OC(N3CCOCC3)C2C)OCO4)c1O (configuration not stated)
-- reply 11.7

-- ask Name the reported inhibition value associated with the compound "CC(C)(C)C(=O)/C(=C/c1cccc([N+](=O)[O-])c1)n1cncn1"
-- reply 87.2

-- ask Name the reported inhibition value associated with the compound "COc1ccc(-c2noc(CCCC(=O)O)n2)cc1"
-- reply 39

---

# target: Steroidogenic factor 1 (Homo sapiens)
# test.name: SF1 (NR5A1) inverse agonists, counter-screen for LRH-1 inverse agonist project, cell-based, luminescence, high throughput (AID 651614);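 also: cells cotransfected with StAR promoter reporter and SF1 expression vector; 0% = vehicle on cells with receptor and 100% = vehicle on cells lacking receptor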
# test.settings: cell-based SF1 luciferase reporter, at 3.6 µM, hits give high values
endpoint.name: inhibition (%)
Entry rule: numbers only, all in %.

Examples with their reported inhibition follow.
[
  {
    "compound": "O=C(CCl)Nc1ccc(Oc2cnc3ccccc3n2)cc1",
    "readout.unit": "%",
    "inhibition": 77.4
  },
  {
    "compound": "C[C@H](CO)N1C[C@H](C)[C@H](CN(C)Cc2ccncc2)Oc2cc(-c3ccccc3F)ccc2S1(=O)=O",
    "readout.unit": "%",
    "inhibition": 64.6
  },
  {
    "compound": "COCC(=O)OC1CCn2c1nc1c2C(=O)C(C)=C(NC(C)=O)C1=O (configuration not stated)",
    "readout.unit": "%",
    "inhibition": 86.6
  }
]

-- ask Name the reported inhibition value associated with the compound "Nc1nc2ccc(Cl)cc2cc1C(=O)NCc1ccc(Oc2ccccc2)cc1"
-- reply 51.1

-- ask Name the reported inhibition value associated with the compound "c1ccc(-c2nnc(-c3ccccn3)nc2NC2CCCCC2)cc1"
-- reply 74.7

-- ask Name the reported inhibition value associated with the compound CC(=O)Nc1ccc(NC(=O)CSc2nnc(COc3ccccc3C)n2CC2CCCO2)cc1 (configuration not stated)
-- reply 57.3

-- ask Name the reported inhibition value associated with the compound "CCCCCOc1ccc(NC(=O)CSc2cccc3cccnc23)cc1"
-- reply 26.9

-- ask Name the reported inhibition value associated with the compound "COc1ccc([C@@]23Oc4cc(OC)cc(OC)c4[C@]2(O)[C@H](O)[C@H](C(=O)N(C)C)[C@H]3c2ccccc2)cc1"
-- reply 99.3

-- ask Name the reported inhibition value associated with the compound "Cc1cc(OCC(=O)Nc2ccc(OCc3ccccc3)cc2)nc(C(C)C)n1"
-- reply 32.4

-- ask Name the reported inhibition value associated with the compound "C=CC[n+]1c(/C=C2\C=Cc3cc(C)ccc3N2CC)ccc2ccccc21"
-- reply 95.5

-- ask Name the reported inhibition value associated with the compound "CCn1nnc(NC(=O)c2ccc([N+](=O)[O-])o2)n1"
-- reply 59.9

-- ask Name the reported inhibition value associated with the compound "O=C(CSc1nnc(Cn2nnc3ccccc32)o1)N(Cc1ccc(F)cc1)c1ccccc1"
-- reply 56.7

-- ask Name the reported inhibition value associated with the compound "COC(=O)Cc1sc(-c2ccccn2)nc1-c1ccccc1"
-- reply 58.9

-- ask Name the reported inhibition value associated with the compound "COc1ccc(CCNC(=O)CSc2nc3[nH]ncc3c(=O)n2-c2ccc(C)c(Cl)c2)cc1OC"
-- reply 56.5

-- ask Name the reported inhibition value associated with the compound "CCCCCCCCCCn1ccc(=N)cc1"
-- reply 90.2

-- ask Name the reported inhibition value associated with the compound "O=C(CSc1nc2ccccc2c(=O)n1-c1ccc(F)cc1)Nc1ccc(N2CCOCC2)cc1"
-- reply 25.7

-- ask Name the reported inhibition value associated with the compound "O=C(N/N=C/c1ccc([N+](=O)[O-])o1)c1ccccc1-n1cccc1"
-- reply 63.4

-- ask Name the reported inhibition value associated with the compound "Cc1sc(NC(=O)/C=C/c2ccc3c(c2)OCO3)nc1-c1ccccc1"
-- reply 74.1

-- ask Name the reported inhibition value associated with the compound O=C1CC(c2ccc3c(c2)OCCO3)Oc2ccc([N+](=O)[O-])cc21 (configuration not stated)
-- reply -37
